Molecular target: Sirt2 (demyristoylation) (Homo sapiens, UniProt Q8IXJ6)
Construct: the respective sirtuin (Sirt1_134–747, Sirt2_56–356, or Sirt3_118–395) was mixed with; made in house; host or cells: Escherichia coli BL21 Star (DE3)
Sequence (Q8IXJ6 56-356): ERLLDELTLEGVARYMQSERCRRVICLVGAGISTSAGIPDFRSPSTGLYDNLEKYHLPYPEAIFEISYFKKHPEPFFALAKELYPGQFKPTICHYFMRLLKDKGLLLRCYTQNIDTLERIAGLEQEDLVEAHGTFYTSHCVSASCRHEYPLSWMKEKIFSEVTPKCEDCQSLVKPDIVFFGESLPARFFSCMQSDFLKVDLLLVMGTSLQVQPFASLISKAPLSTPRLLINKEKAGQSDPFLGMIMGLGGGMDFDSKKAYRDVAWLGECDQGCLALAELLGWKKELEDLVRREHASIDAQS
Experiment: Discontinuous Sirt2 demyristoylation assay (ZMML substrate)
Format: biochemical
Details: mean ± SD
outcome.measure: IC50 (µM)

Previously resolved entries follow.
CCCCN(Cc1ccc(C(=O)NO)cc1)C(=O)CCCCn1cc(COc2cccc(Cc3cnc(NC(=O)CSc4nc(C)cc(C)n4)s3)c2)nn1; 9.7
Cc1cc(C)nc(SCC(=O)Nc2ncc(Cc3cccc(OCc4cn(CCOCCOCCOCCOCCOCCOCCOCCOCCOCCOCCC(=O)Nc5ccc(C(=O)NCc6ccc(C(=O)NO)cc6)cc5)nn4)c3)s2)n1; 2.8
Cc1cc(C)nc(SCC(=O)Nc2ncc(Cc3cccc(OCc4cn(CCOCCOCCOCCOCCC(=O)Nc5ccc(C(=O)NCc6ccc(C(=O)NO)cc6)cc5)nn4)c3)s2)n1; 34

(a) Cc1cc(C)nc(SCC(=O)Nc2ncc(Cc3cccc(OCc4cn(Cc5ccccc5)nn4)c3)s2)n1 [Compound 4, SirReal1.1, reference compound]
(b) Cc1cc(C)nc(SCC(=O)Nc2ncc(Cc3cccc(OCc4cn(CCOCCOCCOCCOCCC(=O)Nc5ccc(C(=O)NCCCCCCC(=O)NO)cc5)nn4)c3)s2)n1
Enquiry: Between a and b , which one shows the smaller IC50 number? In your reply, give the label of the chosen option.
Return: a
